Molecular target: human leukocyte elastase (HLE) (Homo sapiens, UniProt P08246)
Construct: from tissue; host or cells: human leukocytes (from the name)
Sequence (P08246 30-267): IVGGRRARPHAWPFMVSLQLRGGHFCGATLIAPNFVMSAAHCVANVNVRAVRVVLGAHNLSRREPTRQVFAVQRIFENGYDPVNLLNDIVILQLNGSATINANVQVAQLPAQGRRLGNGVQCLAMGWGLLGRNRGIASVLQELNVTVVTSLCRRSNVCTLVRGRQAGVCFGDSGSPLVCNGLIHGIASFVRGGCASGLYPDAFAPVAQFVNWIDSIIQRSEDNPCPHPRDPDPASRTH
Assay: Inactivation of human leukocyte elastase (HLE)
Assay type: biochemical
Settings: Table XI; pH 7.5, 25° C; [I] 1.4-6.6 μM, per line; read-out: kobs/[I]
READOUT_NAME: kinact/KI (M⁻¹ s⁻¹)

molecule="COc1oc(=O)c2cc(NC(=O)OCC3c4ccccc4-c4ccccc43)ccc2c1Cl [7-Fmoc-NH-4-chloro-3-methoxyisocoumarin]" value_observed=10000

I: COC(=O)CCCC(=O)Nc1ccc2c(Cl)c(OC)oc(=O)c2c1
II: COc1oc(=O)c2cc(NC(=O)NCC(C)C)ccc2c1Cl
// compare measured kinact/KI, left I , right II , return larger // caller expects the label of the chosen entry
I
(I: 54000 M⁻¹ s⁻¹, II: 20000 M⁻¹ s⁻¹)

P: CCOC(=O)Nc1ccc2c(Cl)c(OC)oc(=O)c2c1 [7-EtOCONH-4-chloro-3-methoxyisocoumarin]
Q: COc1oc(=O)c2cc(NC(=O)N(CCc3ccccc3)Cc3ccccc3)ccc2c1Cl
R: COc1oc(=O)c2cc(NC(=O)C(NS(=O)(=O)c3ccc(C)cc3)c3ccccc3)ccc2c1Cl (centres unmarked)
Reorder: kinact/KI, max to min. Provide your answer as the labels ordered per the instruction.
R, P, Q
(R: 84000 M⁻¹ s⁻¹, P: 47000 M⁻¹ s⁻¹, Q: 12000 M⁻¹ s⁻¹)

I: COc1oc(=O)c2cc(NC(=O)c3ccccc3C(=O)O)ccc2c1Cl
II: COC(=O)Nc1cccc(C(=O)Nc2ccc3c(Cl)c(OC)oc(=O)c3c2)c1
// compare measured kinact/KI, left I , right II , return larger // caller expects the label of the chosen entry
II

###

Target: human leukocyte elastase (HLE) (Homo sapiens, UniProt P08246)
Construct: from tissue; host or cells: human leukocytes (from the name)
Assay: Inactivation of human leukocyte elastase (HLE)
Format: biochemical
Settings: Table XVI; pH 7.5, 25° C; [I] 0.07-710 μM; read-out: kobs/[I]
READOUT_NAME: kinact/KI (M⁻¹ s⁻¹)

Below: 3 compounds and their reported kinact/KI.
compound="CCCOc1oc(=O)c2cc(N)ccc2c1Cl [7-amino-4-chloro-3-propoxyisocoumarin]" readout_name=kinact/KI units="M⁻¹ s⁻¹" value_observed=390
compound=CC(C)(C)OC(=O)N[C@H](Cc1ccccc1)C(=O)Nc1ccc2c(Cl)c(OCCCBr)oc(=O)c2c1 readout_name=kinact/KI units="M⁻¹ s⁻¹" value_observed=1480
compound=O=C(Cc1ccccc1)Nc1ccc2c(Cl)c(OCCCBr)oc(=O)c2c1 readout_name=kinact/KI units="M⁻¹ s⁻¹" value_observed=32400

I: O=C(NCc1ccccc1)Nc1ccc2c(Cl)c(OCCCBr)oc(=O)c2c1
II: O=c1oc(OCCBr)c(Cl)c2ccc([N+](=O)[O-])cc12
III: CC(C)(C)OC(=O)N[C@@H](Cc1ccccc1)C(=O)Nc1ccc2c(Cl)c(OCCCBr)oc(=O)c2c1
Reorder: kinact/KI, max to min. Provide your answer as the labels ordered per the instruction.
II, I, III
(II: 65600 M⁻¹ s⁻¹, I: 15600 M⁻¹ s⁻¹, III: 1320 M⁻¹ s⁻¹)

P: CC(=O)Nc1ccc2c(Cl)c(OCCCBr)oc(=O)c2c1
Q: Nc1ccc2c(Cl)c(OCCCBr)oc(=O)c2c1
// compare measured kinact/KI, left P , right Q , return larger // caller expects the label of the chosen entry
P

###

Target: human leukocyte elastase (HLE) (Homo sapiens)
Construct: from tissue; host or cells: human leukocytes (from the name)
Experiment: Inactivation of human leukocyte elastase (HLE)
Format: biochemical
Settings: pH 7.5; Table XVI; second order, equimolar inhibitor and enzyme; read-out: kobs/[I]
READOUT_NAME: kinact/KI (M⁻¹ s⁻¹)

Below: 3 compounds and their reported kinact/KI.
smi=CC(C)NC(=O)Nc1ccc2c(Cl)c(OCCBr)oc(=O)c2c1 value_observed=646000
smi=O=C(NCc1ccccc1)Nc1ccc2c(Cl)c(OCCBr)oc(=O)c2c1 value_observed=480000
smi=O=C(Nc1ccc2c(Cl)c(OCCBr)oc(=O)c2c1)Nc1cccc2ccccc12 value_observed=390000

I: O=C(Nc1ccccc1)Nc1ccc2c(Cl)c(OCCBr)oc(=O)c2c1
II: C[C@H](NC(=O)OC(C)(C)C)C(=O)N[C@@H](C)C(=O)Nc1ccc2c(Cl)c(OCCBr)oc(=O)c2c1
III: O=C(Cc1ccccc1)Nc1ccc2c(Cl)c(OCCBr)oc(=O)c2c1
Reorder: kinact/KI, max to min. Provide your answer as the labels ordered per the instruction.
I, III, II
(I: 1.2e+06 M⁻¹ s⁻¹, III: 480000 M⁻¹ s⁻¹, II: 230000 M⁻¹ s⁻¹)

###

Molecular target: cathepsin G (Homo sapiens, UniProt P08311)
Construct: from tissue; host or cells: human leukocytes
Sequence (P08311 21-255): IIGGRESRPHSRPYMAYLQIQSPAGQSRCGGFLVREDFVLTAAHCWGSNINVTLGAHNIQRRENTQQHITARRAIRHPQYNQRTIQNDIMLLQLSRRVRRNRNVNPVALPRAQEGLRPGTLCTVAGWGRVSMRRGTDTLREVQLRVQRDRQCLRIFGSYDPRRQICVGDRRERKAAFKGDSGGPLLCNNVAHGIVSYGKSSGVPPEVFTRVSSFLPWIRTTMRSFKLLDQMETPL
Experiment: Inactivation of cathepsin G
Type: biochemical
Settings: Table X; pH 7.5, 25° C; [I] 33-46 μM; read-out: kobs/[I]
READOUT_NAME: kinact/KI (M⁻¹ s⁻¹)

Below: 2 compounds and their reported kinact/KI.
smi=N=C(N)SCCOc1oc(=O)c2cc(NC(=O)[C@@H](N)Cc3ccccc3)ccc2c1Cl value_observed=53
smi=N=C(N)SCCCOc1oc(=O)c2cc(NC(=O)Cc3ccccc3)ccc2c1Cl value_observed=64

A: N=C(N)SCCCOc1oc(=O)c2cc(NC(=O)NCc3ccccc3)ccc2c1Cl
B: CC(=O)Nc1ccc2c(Cl)c(OCCCSC(=N)N)oc(=O)c2c1
// compare measured kinact/KI, left A , right B , return larger // caller expects the label of the chosen entry
A

###

Molecular target: Cl^- s (Homo sapiens)
Construct: Cl^- s^e
Sequence (P09871 438-688 limits assumed): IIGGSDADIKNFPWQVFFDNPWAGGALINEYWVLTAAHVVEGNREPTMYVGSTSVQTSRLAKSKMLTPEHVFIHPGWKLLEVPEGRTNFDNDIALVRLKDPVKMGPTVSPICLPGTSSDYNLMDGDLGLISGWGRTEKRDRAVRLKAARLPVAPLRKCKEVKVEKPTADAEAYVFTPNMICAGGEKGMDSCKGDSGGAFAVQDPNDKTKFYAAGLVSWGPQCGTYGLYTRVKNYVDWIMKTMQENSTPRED
Sequence (P09871 16-437 partner limits assumed): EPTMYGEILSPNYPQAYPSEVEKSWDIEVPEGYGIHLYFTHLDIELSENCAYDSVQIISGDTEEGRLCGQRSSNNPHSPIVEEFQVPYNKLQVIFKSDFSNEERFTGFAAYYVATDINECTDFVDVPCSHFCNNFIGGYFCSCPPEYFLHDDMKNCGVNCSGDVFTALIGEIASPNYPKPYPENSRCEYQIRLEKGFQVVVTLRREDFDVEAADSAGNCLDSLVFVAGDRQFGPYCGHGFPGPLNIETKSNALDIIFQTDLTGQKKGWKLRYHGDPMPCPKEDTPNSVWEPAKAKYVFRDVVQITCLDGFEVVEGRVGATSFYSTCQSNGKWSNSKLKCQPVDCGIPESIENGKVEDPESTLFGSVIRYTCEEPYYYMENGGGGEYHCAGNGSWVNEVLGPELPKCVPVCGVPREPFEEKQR
Experiment: Inactivation rate of complement protein C1s
Assay type: biochemical
Settings: Table II; pH 7.5, 25° C; [I] 0.8 to 44 μM; read-out: kobs/[I]
READOUT_NAME: kinact/KI (M⁻¹ s⁻¹)
The answer is to be given in M⁻¹ s⁻¹; state only the numeric part.

compound="O=c1oc(Cl)c(Cl)c2ccccc12 [3,4-dichloroisocoumarin, reference compound]" target_of_assay="Cl^- s (Homo sapiens)" readout_name=kinact/KI units="M⁻¹ s⁻¹" value_observed=170
compound="CCOc1oc(=O)c2cc(NC(=N)N)ccc2c1Cl [7-guanidino-3-ethoxy-4-chloroisocoumarin, 7-guanidino-4-chloro-3-ethoxyisocoumarin]" target_of_assay="Cl^- s (Homo sapiens)" readout_name=kinact/KI units="M⁻¹ s⁻¹" value_observed=690
compound=N=C(N)Nc1ccc2c(Cl)c(OCCc3ccccc3)oc(=O)c2c1 target_of_assay="Cl^- s (Homo sapiens)" readout_name=kinact/KI units="M⁻¹ s⁻¹" value_observed=90
compound=COc1oc(=O)c2cc(NC(=N)N)ccc2c1Cl target_of_assay="Cl^- s (Homo sapiens)" readout_name=kinact/KI units="M⁻¹ s⁻¹" value_observed=660
compound=N=C(N)SCCCOc1oc(=O)c2cc(N)ccc2c1Cl target_of_assay="Cl^- s (Homo sapiens)" readout_name=kinact/KI units="M⁻¹ s⁻¹" value_observed=23000

Okay, next one:
Param item: "N=C(N)SCCCOc1oc(=O)c2ccccc2c1Cl" ; param system: Cl^- s (Homo sapiens); output kinact/KI: 130000

###

Property: kinact/KI; scope: individual molecules
Target: human leukocyte elastase (HLE) (Homo sapiens)
Construct: from tissue; host or cells: human leukocytes (from the name)
Assay: Inactivation of human leukocyte elastase (HLE)
Type: biochemical
Conditions: pH 7.5; Table XII; 2.5% Me2SO, 25° C; [I] 0.7-1.9 μM; read-out: kobs/[I]

Below: 8 molecules and their reported kinact/KI.
smi=CCCOc1oc(=O)c2cc(NC(=O)Nc3ccccc3)ccc2c1Cl readout_name=kinact/KI value_observed="143000 M⁻¹ s⁻¹"
smi=CCCOc1oc(=O)c2cc(NC(=O)[C@@H](NC(=O)OC(C)(C)C)C(C)C)ccc2c1Cl readout_name=kinact/KI value_observed="64000 M⁻¹ s⁻¹"
smi=CCCOc1oc(=O)c2cc(NC(=O)c3cccc([N+](=O)[O-])c3)ccc2c1Cl readout_name=kinact/KI value_observed="> 210000 M⁻¹ s⁻¹"
smi=CCCOc1oc(=O)c2cc(NC(=O)NCC)ccc2c1Cl readout_name=kinact/KI value_observed="> 276000 M⁻¹ s⁻¹"
smi=CCCOc1oc(=O)c2cc(NC(=O)OCC)ccc2c1Cl readout_name=kinact/KI value_observed="> 181000 M⁻¹ s⁻¹"
smi=CCCOc1oc(=O)c2cc(NC(=S)NCc3ccccc3)ccc2c1Cl readout_name=kinact/KI value_observed="> 131000 M⁻¹ s⁻¹"
smi=CCCOc1oc(=O)c2cc(NC(=O)CCc3ccccc3)ccc2c1Cl readout_name=kinact/KI value_observed="> 250000 M⁻¹ s⁻¹"
smi=CCCOc1oc(=O)c2cc(NC(=O)CSC)ccc2c1Cl readout_name=kinact/KI value_observed="> 152000 M⁻¹ s⁻¹"

Okay, next one:
Reported kinact/KI for "CCCOc1oc(=O)c2cc(NC(=S)Nc3ccccc3)ccc2c1Cl" was > 166000 M⁻¹ s⁻¹
